Tested on: P. vulgatus WT
Assay Explanation: growth AUC normalised to DMSO control (median) (fraction of control); higher = less growth inhibition, active = hit call of the paper;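 active = normalised median growth AUC below 0.1 of DMSO control; inactive = AUC 0.1 or higher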;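 further: active when median AUC fell below 0.1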
Run Parameters: 20 µM
Structures can show the parent of a compound that is named as a salt.
Give your call using only these classes: active, inactive

Qu. Can you look up the reported call for CC(C(O)c1ccc(O)cc1)N1CCC(Cc2ccccc2)CC1 (stereo not drawn) [Ifenprodil tartrate] for me?
Ans. inactive

Qu. I'd appreciate the recorded outcome for CC1CCc2cc(F)cc3c(=O)c(C(=O)O)cn1c23 (stereo not drawn) from this test.
Ans. inactive

Qu. Hey, what did the test say about `C#C[C@]1(O)CC[C@H]2[C@@H]3CCc4cc(O)ccc4[C@H]3CC[C@@]21C` ?
Ans. inactive

Qu. Answer briefly: the call reported for C[C@@H]1C[C@H]2[C@@H]3C[C@H](F)C4=CC(=O)C=C[C@]4(C)[C@@]3(F)[C@@H](O)C[C@]2(C)[C@@]1(O)C(=O)COC(=O)C(C)(C)C [Flumethasone pivalate] in this assay.
Ans. inactive

Qu. Could you please tell me the result logged for CC[C@@H]1C(=O)OC[C@@H]1Cc1cncn1C [Pilocarpine nitrate] in this assay?
Ans. inactive

Qu. What was the test verdict on `COC(=O)N/N=C/c1c[n+]([O-])c2ccccc2[n+]1[O-]` ?
Ans. active

Qu. Which outcome did this test record for the molecule `Cc1nc(C)c(Cl)c(O)c1Cl` ?
Ans. inactive

Qu. Which outcome did this test record for the molecule Nc1ncn(C2OC(CO)C(O)C2O)c(=O)n1 (stereo not drawn) ?
Ans. inactive

Qu. What was the test verdict on Brc1c(NC2=NCCN2)ccc2nccnc12 [Brimonidine L-tartrate] ?
Ans. inactive

Qu. Please indicate how the test categorized COc1cc2nc(N3CCN(C(=O)C4COc5ccccc5O4)CC3)nc(N)c2cc1OC (stereo not drawn) [Doxazosin mesylate] .
Ans. inactive

Qu. Outcome? CN(C)CCCN1c2ccccc2Sc2ccccc21 [Promazine hydrochloride]
Ans. inactive

Qu. Would you mind telling me which call this test gave `Nc1cc(-c2ccncc2)c[nH]c1=O` ?
Ans. inactive

Qu. Recorded call for C#C[C@]1(OC(C)=O)CC[C@H]2[C@@H]3CCC4=C[C@@H](OC(C)=O)CC[C@@H]4[C@H]3CC[C@@]21C [Ethynodiol diacetate] ?
Ans. inactive

Qu. In this assay, the call recorded for `O=C(O)CCCC[C@@H]1SC[C@@H]2NC(=O)N[C@@H]21` was what?
Ans. inactive

Qu. Assay result, entry `O=C1NCN(c2ccccc2)C12CCN(CCCC(c1ccc(F)cc1)c1ccc(F)cc1)CC2` — outcome?
Ans. inactive

Qu. Please let me know the test result on file for `NC(=O)c1ncn([C@@H]2O[C@H](CO)[C@@H](O)[C@H]2O)n1` .
Ans. inactive

Qu. What was the test verdict on `CC[C@]12CCCN3CCc4c(n(c5ccccc45)[C@@](O)(C(=O)OC)C1)[C@@H]32` ?
Ans. inactive

Qu. Please state the recorded outcome for this molecule: Nc1c(Br)cc(Br)cc1CN[C@H]1CC[C@H](O)CC1 [Ambroxol hydrochloride]
Ans. inactive

====

Tested on: S. enterica typhimurium WT
Assay Explanation: growth AUC normalised to DMSO control (median) (fraction of control); higher = less growth inhibition, active = hit call of the paper
Run Parameters: 20 µM
Where a name gives a salt, the structure may show the parent alone.
Quantity: growth AUC normalised to DMSO control
Keep the answer to the number alone.

Qu. Give growth AUC normalised to DMSO control (S. enterica typhimurium WT) of the following compound: CNCC(O)c1ccc(O)c(O)c1 (centres undefined) [Racepinephrine hydrochloride]
Ans. 1.01

Qu. Provide value of growth AUC normalised to DMSO control for this record tested with S. enterica typhimurium WT: `CNC[C@H](O)[C@@H](O)[C@H](O)[C@H](O)CO`
Ans. 1.01

Qu. Query for S. enterica typhimurium WT: what growth AUC normalised to DMSO control does the record show for CC(=O)[C@@]12O[C@](C)(c3ccccc3)O[C@@H]1C[C@H]1[C@@H]3CCC4=CC(=O)CC[C@]4(C)[C@H]3CC[C@@]12C [Algestone acetophenide] ?
Ans. 1

Qu. Return growth AUC normalised to DMSO control measured with S. enterica typhimurium WT given this compound: O=C(O)c1ccccc1Nc1cc(Cl)ccc1C(=O)O [Lobenzarit disodium]
Ans. 1.02

Qu. I'm curious: which growth AUC normalised to DMSO control was measured for `O=C(NCCO[N+](=O)[O-])c1cccnc1` tested on S. enterica typhimurium WT?
Ans. 1.01

Qu. Look up growth AUC normalised to DMSO control with S. enterica typhimurium WT for this compound: Cc1ncc([N+](=O)[O-])n1CC(C)O (centres undefined)
Ans. 1.01

Qu. Short answer please: growth AUC normalised to DMSO control, S. enterica typhimurium WT, entry `COC(=O)Nc1nc2cc(Sc3ccccc3)ccc2[nH]1`
Ans. 1.01

Qu. Lab note: need growth AUC normalised to DMSO control with S. enterica typhimurium WT for entry CN1CCN2c3ncccc3Cc3ccccc3C2C1 (centres undefined) , please look it up.
Ans. 1

Qu. Checklist item: growth AUC normalised to DMSO control tested on S. enterica typhimurium WT, entry `CC(C)=CCOc1ccc(/C=C/C(=O)c2ccc(OCC=C(C)C)cc2OCC(=O)O)cc1` , value?
Ans. 1
